Data origin, for the record: ChEMBL document CHEMBL1141451

- System: MCF7
- assayText: Cytotoxicity against human MCF7 cells
- Type: functional, cell-based
# 1.0 = EC50 below 1 µg/mL (exclusive); 0.0 = EC50 at/above 1 µg/mL

Please review the entries below; each comes with its answer.
compoundstructure=C=C1C(=O)[C@@]23CC[C@@H]4[C@@](C)(COC(C)=O)CCC[C@@]4(C)[C@@H]2CC[C@@H]1C3 group=0.0
compoundstructure=C=C1C(=O)[C@]23C[C@H]1CC[C@H]2[C@]1(C)CCCC(C)(C)[C@H]1C[C@H]3O group=0.0
compoundstructure=C=C1C(=O)[C@@]23[C@H](O)C[C@@H]4[C@@](C)(COC(C)=O)CCC[C@@]4(C)[C@@H]2CC[C@@H]1[C@H]3O group=0.0
compoundstructure=C=C1C(=O)[C@]23C[C@H]1CC[C@H]2[C@]1(C)CCC[C@](C)(COC(C)=O)[C@H]1C[C@H]3O group=1.0
compoundstructure=C=C1C(=O)[C@@]23CC[C@@H]4[C@@](C)(CO)CCC[C@@]4(C)[C@@H]2CC[C@@H]1C3 group=0.0

Field: below-cutoff. Rule: recorded EC50 strictly less than 1 µg/mL. Subject: `C=C1C(=O)[C@@]23[C@H](O)C[C@@H]4C(C)(C)CC[C@@H](OC(C)=O)[C@@]4(C)[C@@H]2CC[C@@H]1[C@H]3O`
1.0

Field: below-cutoff. Rule: recorded EC50 strictly less than 1 µg/mL. Subject: `C=C1C(=O)[C@@]23[C@H](O)C[C@@H]4C(C)(C)CCC[C@@]4(C)[C@@H]2CC[C@@H]1[C@H]3O`
1.0

Field: below-cutoff. Rule: recorded EC50 strictly less than 1 µg/mL. Subject: `C=C1C(=O)[C@@]23CC[C@H]4[C@@](C)(CCC[C@]4(C)C(=O)O)[C@@H]2CC[C@@H]1C3`
0.0
